Reported values of activity (%) for individual entries
- Measured On: AMPA receptor (human GluR1 flip/stargazin expressed in CHO-K1 cells) (Homo sapiens)
- Construct: expressed in transfected cells; host or cells: CHO-K1
- Sequence (P42261 19-906 isoform P42261-2 limits assumed): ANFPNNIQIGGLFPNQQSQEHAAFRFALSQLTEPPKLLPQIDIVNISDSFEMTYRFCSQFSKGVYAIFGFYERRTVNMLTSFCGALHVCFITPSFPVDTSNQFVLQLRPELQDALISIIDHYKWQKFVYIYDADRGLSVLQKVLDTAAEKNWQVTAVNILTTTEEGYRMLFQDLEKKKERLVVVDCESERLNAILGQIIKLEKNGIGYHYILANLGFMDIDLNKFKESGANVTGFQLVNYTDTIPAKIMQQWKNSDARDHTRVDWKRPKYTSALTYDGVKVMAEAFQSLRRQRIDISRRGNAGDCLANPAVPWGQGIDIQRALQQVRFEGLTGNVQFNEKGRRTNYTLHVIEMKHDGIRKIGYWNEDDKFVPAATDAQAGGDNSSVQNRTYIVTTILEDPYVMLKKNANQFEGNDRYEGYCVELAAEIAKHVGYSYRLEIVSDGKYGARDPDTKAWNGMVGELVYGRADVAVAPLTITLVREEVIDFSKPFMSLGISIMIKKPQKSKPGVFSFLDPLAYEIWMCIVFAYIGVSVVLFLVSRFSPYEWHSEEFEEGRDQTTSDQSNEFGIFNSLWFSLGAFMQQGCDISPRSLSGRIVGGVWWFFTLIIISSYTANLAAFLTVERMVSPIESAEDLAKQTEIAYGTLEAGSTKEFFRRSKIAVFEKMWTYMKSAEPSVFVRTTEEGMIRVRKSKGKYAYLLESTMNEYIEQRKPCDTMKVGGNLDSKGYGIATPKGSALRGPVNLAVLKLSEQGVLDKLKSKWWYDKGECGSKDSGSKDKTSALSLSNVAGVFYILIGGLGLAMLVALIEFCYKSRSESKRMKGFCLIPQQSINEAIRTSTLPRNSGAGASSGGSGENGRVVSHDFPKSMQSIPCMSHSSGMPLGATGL
- Sequence (Q9Y698 whole entry partner): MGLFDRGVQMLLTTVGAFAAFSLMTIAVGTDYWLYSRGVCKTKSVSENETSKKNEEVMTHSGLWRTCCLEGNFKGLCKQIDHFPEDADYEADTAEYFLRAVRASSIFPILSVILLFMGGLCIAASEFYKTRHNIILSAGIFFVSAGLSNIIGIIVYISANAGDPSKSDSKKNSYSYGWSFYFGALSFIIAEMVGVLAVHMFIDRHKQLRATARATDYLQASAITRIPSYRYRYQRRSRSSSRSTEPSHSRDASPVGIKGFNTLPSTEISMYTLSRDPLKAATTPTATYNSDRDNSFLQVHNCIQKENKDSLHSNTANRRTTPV
- Test: AMPA receptor function enhancing activity using calcium influx as index
- Format: cell-based
- Settings: change in fluorescence level in 3 min, 100% = 3 mM glutamic acid + 300 μM cyclothiazide, 0% = 3 mM glutamic acid only
Answer shape: numeric part, then the unit.

Some entries whose results are on file:
# Compound, Measured On, activity (%)
data = [
    ("O=S(=O)(N[C@H]1CCOC[C@@H]1COc1ccc(-c2ccc(F)cn2)c(F)c1)C1CC1 (racemic)", "AMPA receptor (human GluR1 flip/stargazin expressed in CHO-K1 cells) (Homo sapiens)", "96%"),
    ("Cc1cc(-c2ccc(OC[C@H]3COCC[C@@H]3NS(C)(=O)=O)cc2F)no1", "AMPA receptor (human GluR1 flip/stargazin expressed in CHO-K1 cells) (Homo sapiens)", "87%"),
    ("CCS(=O)(=O)N[C@H]1CCCC[C@@H]1COc1ccc(C(C)C)cc1 (relative stereo) [Example 8]", "AMPA receptor (human GluR1 flip/stargazin expressed in CHO-K1 cells) (Homo sapiens)", "79%"),
]

Consider now this further compound.
Prompt: Note activity (%) for the compound shown: O=S(=O)(N[C@@H]1CCCC[C@H]1COc1ccc(C2CC2)cc1)C1CC1 (relative stereo)
Response: 72%

----------
- Measured On: AMPA receptor (human GluR1 flip/stargazin expressed in CHO-K1 cells) (Homo sapiens)
- Construct: expressed in transfected cells; host or cells: CHO-K1
- Test: AMPA receptor function enhancing activity using calcium influx as index
- Type: cell-based
- Settings: change in fluorescence level in 3 min, 100% = 3 mM glutamic acid + 300 μM cyclothiazide, 0% = 3 mM glutamic acid only
Result Type: activity (%)
State the value with its unit after it.

For orientation, consider the following solved cases.
# Compound, activity (%)
measured = [
    ("O=S(=O)(N[C@H]1CCOC[C@@H]1COc1ccc(-c2ncc(F)cc2F)cc1)C1CC1 (racemic)", "96%"),
    ("CCS(=O)(=O)N[C@H]1COCC[C@@H]1COc1ccc(C(C)C)cc1 (single isomer, unassigned) [Example 110]", "88%"),
    ("CS(=O)(=O)N[C@H]1CCOC[C@@H]1COc1ccc(-c2ccc(F)cn2)c(F)c1 (single isomer, unassigned)", "68%"),
]

Prompt: Tell us which activity (%) value is on record for `CS(=O)(=O)N[C@H]1COCC[C@@H]1COc1ccc(-c2ncc(F)cn2)cc1`
Response: 98%

Prompt: Give the measured activity (%) for CCS(=O)(=O)N[C@H]1CCOC[C@@H]1COc1ccc(C(C)C)cc1 (relative stereo)
Response: 77%

Prompt: Provide activity (%) value for the following compound: `CCS(=O)(=O)N[C@H]1CCC(F)(F)C[C@@H]1COc1ccc(-c2ncc(C#N)cc2F)cc1`
Response: 89%

Prompt: Using known records, supply activity (%) for CS(=O)(=O)N[C@H]1CCC(F)(F)C[C@@H]1COc1ccc(-c2ccc(C#N)cn2)cc1 (racemic) [Example 260]
Response: 82%

Prompt: Write down activity (%) measured for item `CS(=O)(=O)N[C@H]1CCSC[C@@H]1COc1ccc(C2CCOCC2)cc1`
Response: 88%

Sourced from patent US9527807B2
